tested target: human VPAC1 (Homo sapiens, UniProt P32241)
Sequence (P32241 31-457): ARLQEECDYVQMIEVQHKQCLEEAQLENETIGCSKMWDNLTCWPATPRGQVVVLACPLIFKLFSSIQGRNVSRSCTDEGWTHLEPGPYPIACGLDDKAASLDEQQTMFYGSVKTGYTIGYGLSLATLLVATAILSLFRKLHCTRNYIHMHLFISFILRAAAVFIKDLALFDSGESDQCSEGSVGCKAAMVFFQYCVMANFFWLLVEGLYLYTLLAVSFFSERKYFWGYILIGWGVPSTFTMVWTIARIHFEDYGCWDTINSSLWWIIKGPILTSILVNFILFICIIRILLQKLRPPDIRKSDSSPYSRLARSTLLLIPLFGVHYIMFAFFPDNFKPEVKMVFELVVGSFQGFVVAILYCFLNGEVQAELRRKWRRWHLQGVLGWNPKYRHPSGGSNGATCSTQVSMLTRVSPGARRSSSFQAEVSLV
assay method text: Filter binding assay, membranes of cells transiently transfected with human VPAC1, 125I-labeled VIP tracer (Table 2)
Set-up: expressed in transfected cells
experimental setup: read-out: Human VPAC1 Receptor Binding
Where no end group is shown, it is not given here. [ ]: non-standard residue; d: D form. The star is where a group is joined. Hexanoyl = CCCCCC(=O)*; Aib = CC(C)(N)C(=O)O
# key: entry, value: pIC50
Kindly note that pIC50 refers to -log10 of the concentration in mol/L and answer with the value alone.

Hexanoyl-H[Aib]DAVFTDNYTRLRKQVAAKKYLQSIKNKRYGGPSSGAPPPS [Agonist P166] | 6.61
Hexanoyl-HSDAVFTDNYTRLRKQVAAKKYLQS[Aib]KNKRYGGPSSGAPPPS [Agonist P188] | 8.21
Hexanoyl-HSDAVFTDNYTRLRAQVAAQKYLQSIKNKRYGGPSSGAPPPS [Agonist P138] | 8.28

Under human VPAC1 (Homo sapiens, UniProt P32241): pIC50 value of Hexanoyl-HSDAVFTDNYTRLRKQVAAKKYLQSIKNKKGGPSSGAPPPS [Agonist P121] ?
6.77

Under human VPAC1 (Homo sapiens, UniProt P32241): pIC50 value of Hexanoyl-HSDAVFTDNYTRLKAQVAAKKYLQSIKNKRYGGPSSGAPPPS [Agonist P141] ?
7.59

Under human VPAC1 (Homo sapiens, UniProt P32241): pIC50 value of Hexanoyl-HSDAVFTDNYTRLAKQVAAKKYLQSIKNKRYGGPSSGAPPPS [Agonist P173] ?
5.75

Under human VPAC1 (Homo sapiens, UniProt P32241): pIC50 value of HSDAVFTDNYTRAAAKVAAKKYLQSIKNKRYGGPSSGAPPPS [Agonist P88] ?
6.01

Under human VPAC1 (Homo sapiens, UniProt P32241): pIC50 value of HSDAVFTDNYTRLRKQVAASKYLQSIKNKRYGGPSSGAPPPS [Agonist P21] ?
6.41

Under human VPAC1 (Homo sapiens, UniProt P32241): pIC50 value of Hexanoyl-HSDAVFTDNYTRLRKQVAAK[Aib]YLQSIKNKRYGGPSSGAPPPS [Agonist P170] ?
6.56

Under human VPAC1 (Homo sapiens, UniProt P32241): pIC50 value of Hexanoyl-HSDAVFTDNYTRLRKQVAAYKYLQSIKNKRYGGPSSGAPPPS [Agonist P147] ?
6.97

Under human VPAC1 (Homo sapiens, UniProt P32241): pIC50 value of Hexanoyl-HSDAVFTDNYTRLRKQVAAVKYLQSIKNKRYGGPSSGAPPPS [Agonist P146] ?
6.40

Under human VPAC1 (Homo sapiens, UniProt P32241): pIC50 value of Hexanoyl-HSDAVFTYNYTRLRKQVAAKKYLQSIKNKRYGGPSSGAPPPS [Agonist P163] ?
7.45

Under human VPAC1 (Homo sapiens, UniProt P32241): pIC50 value of Hexanoyl-HSDAVFTDNYTRLRKQVAAKKYLQFIKNKRYGGPSSGAPPPS [Agonist P112] ?
6.72

Under human VPAC1 (Homo sapiens, UniProt P32241): pIC50 value of Hexanoyl-HSDAVFTDNYTRLRKQVAAFKYLQSIKNKRYGGPSSGAPPPS [Agonist P148] ?
6.61

Under human VPAC1 (Homo sapiens, UniProt P32241): pIC50 value of HSDAVFTDNYTRLRRQVAAKKYLQSIKNKRYGGPSSGAPPPS [Agonist P72] ?
6.80

Under human VPAC1 (Homo sapiens, UniProt P32241): pIC50 value of Hexanoyl-HSDAVFTDNYTRLRKQVAAKKTLQSIKNKRYGGPSSGAPPPS [Agonist P131] ?
5.86

Under human VPAC1 (Homo sapiens, UniProt P32241): pIC50 value of Hexanoyl-HSDAVFTEEYTRLQKQVAAKQYLQSIKNKRYGGPSSGAPPPS [Agonist P165] ?
6.31

Under human VPAC1 (Homo sapiens, UniProt P32241): pIC50 value of Hexanoyl-HSDAVFTDNYTRL[Aib]KQVAAKKYLQSIKNKRYGGPSSGAPPPS [Agonist P167] ?
5.94

Under human VPAC1 (Homo sapiens, UniProt P32241): pIC50 value of Hexanoyl-HSDAVFTDNYTRLRKQVAAKKYLQIIKNKRYGGPSSGAPPPS [Agonist P113] ?
6.53

Under human VPAC1 (Homo sapiens, UniProt P32241): pIC50 value of [dH]SDAVFTDNYTRLRKQVAAKKYLQSIKNKRYGGPSSGAPPPS [Agonist P84] ?
6.33

Under human VPAC1 (Homo sapiens, UniProt P32241): pIC50 value of Hexanoyl-HSDAVFTRNYTRLRKQVAAKKYLQSIKNKRYGGPSSGAPPPS [Agonist P162] ?
8.29

Under human VPAC1 (Homo sapiens, UniProt P32241): pIC50 value of Hexanoyl-HSDALFTDNYTRLRKQVAAKKYLQSIKNKRYGGPSSGAPPPS [Agonist P289] ?
6.59

Under human VPAC1 (Homo sapiens, UniProt P32241): pIC50 value of Hexanoyl-HSD[dA]VFTDNYTRLRKQVAAKKYLQSIKNKRYGGPSSGAPPPS [Agonist P207] ?
6.55

Under human VPAC1 (Homo sapiens, UniProt P32241): pIC50 value of Hexanoyl-HGEGTFTDNYTRLRKQVAAKKYLQSIKNKRYGGPSSGAPPPS [Agonist P222] ?
6.75
